# Test system: RPMI-8226 leukemia
# assay-details: NCI tumour cell line growth inhibition, 48 h
Measured TGI, listed per entry for reference.

O=S(=O)(O)SCCNCCCCCC1CCCCC1: 42.1 µM
COc1ccc2c(c1)c1c3n2CCNN=C3CCC1: > 100 µM
O=C(N/N=C\c1ccc([N+](=O)[O-])s1)c1ccncc1: > 41.3 µM
C/C(CC(=O)Nc1cccc([N+](=O)[O-])c1)=N\NC(=O)CC#N: > 100 µM
O=C1C=C(N2CCN(CCOCCO)CC2)C(=O)c2c(O)ccc(O)c21: > 100 µM

Query string: What value of TGI has been reported for the following molecule? C/C(=N\NC(N)=S)c1ccc(C2CCCCC2)cc1
Result string: > 100 µM

Query string: What value of TGI has been reported for the following molecule? CN(C)/C=C/C=C(/C=N/S(=O)(=O)C(F)(F)F)C1C=CN(S(=O)(=O)C(F)(F)F)C=C1
Result string: > 100 µM

Query string: What value of TGI has been reported for the following molecule? CCCCNC1=C(C(=O)OCC)/C(=N/NC(=O)c2ccccc2O)CO1
Result string: > 100 µM
